target: HLA-A*02:50; experiment: IEDB peptide-MHC binding, purified MHC/direct/fluorescence; filed as Kd, often an IC50 or EC50 that approximates it; bounds were set here for any values at or beyond the usual limits of such assays; conditions: source organism: Francisella tularensis subsp. tularensis FSC033
measurement.label: Kd

Input line: Data request, read-out Kd, for ETLDVFGPI
Output line: ≥ 20 µM

###

target: HLA-B*07:02; assay: IEDB peptide-MHC binding, purified MHC/competitive/radioactivity; filed as Kd, often an IC50 or EC50 that approximates it; bounds were set here for any values at or beyond the usual limits of such assays; conditions: source organism: Mammarenavirus machupoense
measurement.label: pKd
Give bare numbers, as −log10 of the molar value.

Input line: Checklist item: pKd tested on HLA-B*07:02, entry MPALTIACM , value?
Output line: 6.85
